- assayProtocol: reducers of endogenous Her2 protein level, primary screen, SKBR3 breast tumor cells, AlphaScreen, ATP viability (AID 461);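 note: percent of carrier control wells set as 100% viability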
- setupConditions: 18-24 h, measured here: SKBR3 viability, ATP luminescence, at 10 µM
Entries and their measured viability follow.
observedProperty: viability (%)

molecule=Cc1cccc(NS(=O)(=O)c2cc(C(=O)OCC(=O)Nc3cc(C)on3)ccc2C)c1 observedproperty=viability resultvalue=93
molecule=Cc1ccc(Cn2ncc3c(NCCCN4CCOCC4)ncnc32)cc1 observedproperty=viability resultvalue=92.5
molecule=CCOc1ccc(S(=O)(=O)Nc2ccccc2C(=O)Nc2ccccc2N2CCOCC2)cc1 observedproperty=viability resultvalue=104
molecule=FC(F)(F)c1nnc2sc(-c3cccs3)nn12 observedproperty=viability resultvalue=102
molecule=CC(=O)Nc1ccccc1-c1nc2ccc(C(=O)N3CCN(c4ccccc4)CC3)cc2[nH]c1=O observedproperty=viability resultvalue=99.5
molecule=N#Cc1c(-c2ccccc2)nc(SCc2nc(N)nc(N3CCCCC3)n2)[nH]c1=O observedproperty=viability resultvalue=90.5
molecule=CN(C(=O)c1ccccc1Cl)c1ccccc1 observedproperty=viability resultvalue=93.5
molecule=NC(=O)c1c(NC(=O)CSc2nnc(-c3ccco3)n2-c2ccccc2)sc2c1CCC2 observedproperty=viability resultvalue=76
molecule=COc1cccc(NC(=O)NC2(C(F)(F)F)Oc3ccccc3O2)c1 observedproperty=viability resultvalue=91.5
molecule="O=C(O)CC1SC(=Nc2cccc(C(F)(F)F)c2)NC1=O (stereo unspecified)" observedproperty=viability resultvalue=111
molecule="CCc1nnc(NC(=O)C2CC(=O)N(Cc3ccco3)C2)s1 (stereo unspecified)" observedproperty=viability resultvalue=107
